# System: lacZ under control of the tetA promoter (PtetA) in E. coli KM3
# Type: cell-based
# assay-setup: Table 6, reverse repressor hits; chlorimuron, same plate assay format (20 ppm)
Examples of molecules with documented relative β-galactosidase activity, inducer Ci follow.
Output: the number by itself.

Problem: Please indicate relative β-galactosidase activity, inducer Ci recorded for L1-25: library L1 hit with reverse repressor activity (SEQ ID NO: 1206-1213) (protein, rSuR L1-25) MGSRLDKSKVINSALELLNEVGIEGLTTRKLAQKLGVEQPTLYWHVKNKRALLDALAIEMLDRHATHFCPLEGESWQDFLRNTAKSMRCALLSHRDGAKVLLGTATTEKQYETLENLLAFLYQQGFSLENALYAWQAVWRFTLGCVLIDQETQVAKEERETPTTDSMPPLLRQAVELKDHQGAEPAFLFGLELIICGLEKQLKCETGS
Solution: 0.11

---
Problem: Please indicate relative β-galactosidase activity, inducer Ci recorded for L1-33: library L1 hit with reverse repressor activity (SEQ ID NO: 1206-1213) (protein, rSuR L1-33) MGSRLDKSKVINSALELLNEVGIEGLTTRKLAQKLGVEQPTLYWHVKNKRALLDALAIEMLDRHATHFCPLEGESWQDFLRNNAKSMRCALLSHRDGAKVQLGTAATEKQYETLENKLAFLCQQGFSLENALYAHSAVTQFTLGCVLRDQEGQVAKEERETPTTDSMPPLLRQARELRDHQGAEPAFLFGLELIICGLEKQLKCESGS
Solution: 0.76

Problem: Please indicate relative β-galactosidase activity, inducer Ci recorded for L1-21: library L1 hit with reverse repressor activity (SEQ ID NO: 1206-1213) (protein, rSuR L1-21) MGSRLDKSKVINSALELLNEVGIEGLTTRKLAQKLGVEQPTLYWHVKNKRALLDALAIEMLDRHATHFCPLEGESWQDFLRNNAKSFRCALLSHRDGAKVCLGTAGTEKQYETLENCLAFLCQQGFSLENALYARSAVVCFTLGCVLFDQEMQVAKEERETPTTDSMPPLLRQAAELLDHQGAEPAFLFGLELIICGLEKQLKCESGS
Solution: 0.07

Problem: Please indicate relative β-galactosidase activity, inducer Ci recorded for L1-36: library L1 hit with reverse repressor activity (SEQ ID NO: 1206-1213) (protein, rSuR L1-36) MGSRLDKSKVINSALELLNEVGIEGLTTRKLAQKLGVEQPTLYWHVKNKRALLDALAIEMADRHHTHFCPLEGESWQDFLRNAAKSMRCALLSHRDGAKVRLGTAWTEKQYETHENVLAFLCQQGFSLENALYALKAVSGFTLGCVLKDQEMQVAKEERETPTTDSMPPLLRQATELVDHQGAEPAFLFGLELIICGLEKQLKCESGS
Solution: 0.21
